Reported K is given for each of the following compounds.
Organism: Rattus norvegicus
Assay Name: Open TG-GATES - Regimen: Single
Format: toxicity, organism-based, Sprague-Dawley
Design: regimen Single, gender Male, age 6 weeks
Measurement Conditions: in vivo, po, 0 mg/kg, 3 h, tissue Plasma, route gavage, dose level Control
Quantity Name: K (meq/L)

[
  {
    "Compound": "C#C[C@]1(O)CC[C@H]2[C@@H]3CCc4cc(O)ccc4[C@H]3CC[C@@]21C [ETHINYL ESTRADIOL]",
    "Unit String": "meq/L",
    "Val": 4
  },
  {
    "Compound": "CC(=O)Oc1cc(C(C)C)c(OCCN(C)C)cc1C [MOXISYLYTE]",
    "Unit String": "meq/L",
    "Val": 4.3
  },
  {
    "Compound": "CC(C)(S)[C@@H](N)C(=O)O [PENICILLAMINE]",
    "Unit String": "meq/L",
    "Val": 4.4
  },
  {
    "Compound": "O=C(O)c1cccnc1 [NIACIN]",
    "Unit String": "meq/L",
    "Val": 4.2
  },
  {
    "Compound": "CCC(C)(C)C(=O)O[C@H]1C[C@@H](C)C=C2C=C[C@H](C)[C@H](CC[C@@H]3C[C@@H](O)CC(=O)O3)[C@H]21 [SIMVASTATIN]",
    "Unit String": "meq/L",
    "Val": 4.4
  },
  {
    "Compound": "Oc1ncnc2[nH]ncc12 [ALLOPURINOL]",
    "Unit String": "meq/L",
    "Val": 4.8
  },
  {
    "Compound": "CC(C)C(=O)Nc1ccc([N+](=O)[O-])c(C(F)(F)F)c1 [FLUTAMIDE]",
    "Unit String": "meq/L",
    "Val": 3.9
  },
  {
    "Compound": "CC(=N)S [THIOACETAMIDE]",
    "Unit String": "meq/L",
    "Val": 4.8
  },
  {
    "Compound": "O=C(N[C@H](CO)[C@H](O)c1ccc([N+](=O)[O-])cc1)C(Cl)Cl [CHLORAMPHENICOL]",
    "Unit String": "meq/L",
    "Val": 4.2
  },
  {
    "Compound": "CN1C(=O)OC(C)(C)C1=O [TRIMETHADIONE]",
    "Unit String": "meq/L",
    "Val": 4.2
  }
]
